Test system: A549 CisR cisplatin-resistant lung cancer cell line
Experiment: Cell viability in A549 CisR cells
Type: cell-based
Settings: A549 CisR cells
Quantity measured: IC50 (µM)
The response must be a number in µM with no trailing unit.

Which measured IC50 belongs to N.N.[Cl][Pt][Cl] [Cisplatin, cisplatin] , tested on A549 CisR cisplatin-resistant lung cancer cell line?
12.4

====

Test system: A2780 ovarian cancer cell line
Experiment: Cell viability in A2780 cells
Format: cell-based
Quantity measured: IC50 (µM)
The response must be a number in µM with no trailing unit.

Endpoint output: IC50 of N.N.[Cl][Pt][Cl] [Cisplatin, cisplatin] . Value?
0.23

Data provenance is paper PMC8091166.
